experiment: Pharmacokinetics and oral bioavailability in the mouse; format: in vivo; details: male, Balb Nu/Nu, plasma, 10 mg/kg oral, mean value, read-out: T½ (oral) (converted)
Test readout: half-life (h)
Just the number in h, nothing appended.

Which half-life is reported for this molecule? Cl.NCCOc1c(-c2cccc(Cl)c2)[nH]c(=O)c2ccccc12
1.11

Which half-life is reported for this molecule? Cl.NCCOc1c(-c2ccccc2)[nH]c(=O)c2cc(F)ccc12
1.06

Which half-life is reported for this molecule? COc1ccc(-c2[nH]c(=O)c3ccccc3c2OCCN)cc1.Cl
2.71

Which half-life is reported for this molecule? CNCCCOc1c(-c2ccccc2)[nH]c(=O)c2ccccc12.Cl
1.19

Which half-life is reported for this molecule? O=c1[nH]c(-c2cccc(O)c2)c(OCCCN2CCCCC2)c2ccccc12
1.11

Which half-life is reported for this molecule? COc1cccc(-c2[nH]c(=O)c3ccccc3c2OCCN)c1.Cl
1.01

Which half-life is reported for this molecule? COc1ccc(-c2[nH]c(=O)c3cc(F)ccc3c2OCCN)cc1.Cl
2.17
